# System: ryegrass, Italian (Italian ryegrass, Lolium multiflorum)
# assay-overview: Test C postemergence, plant response rating
# Type: in vivo
# condition-label: 16 g ai/ha, scale of 0 to 100
endpoint: Plant response rating, Ryegrass, Italian

compound	measured-on	Plant response rating, Ryegrass, Italian
N#Cc1cccc(Oc2ncc(Cl)cn2)c1COCCC(F)(F)F	ryegrass, Italian (Italian ryegrass, Lolium multiflorum)	0
N#CC(CCCC(F)(F)F)c1ccccc1Oc1ncc(Cl)cn1 (stereo not shown)	ryegrass, Italian (Italian ryegrass, Lolium multiflorum)	5
O=C(CCCC(F)(F)F)c1c(Oc2ncc(Cl)cn2)cccc1C(F)(F)F	ryegrass, Italian (Italian ryegrass, Lolium multiflorum)	5

Proceeding to the next compound to report its Plant response rating, Ryegrass, Italian.
Answer with Plant response rating, Ryegrass, Italian of O=C(CCCC(F)(F)F)c1c(Cl)cccc1Oc1ncc(Cl)cn1 measured for ryegrass, Italian (Italian ryegrass, Lolium multiflorum).
5

----------
# System: blackgrass (Alopecurus myosuroides)
# assay-overview: Test A postemergence, visual injury rating
# Assay type: in vivo
# condition-label: 125 g ai/ha, 0 to 100 scale, 0 is no effect, 100 is complete control, approximately 10 days
endpoint: Blackgrass plant response rating
Give bare numbers.

compound	measured-on	reported-result
FC(F)(F)CCCCc1c(Br)cccc1Oc1ncc(Cl)cn1 [Compound 138]	blackgrass (Alopecurus myosuroides)	90

Hi! Can you tell me Blackgrass plant response rating for each of these compounds?
1. O=C(OCCC1CC1)c1c(Br)cccc1Oc1ncc(Cl)cn1 [Compound 123]
2. O=C(CCCC(F)(F)F)c1c(Cl)cccc1Oc1ncc(Cl)cn1 [Compound 143]
3. CCCCCC(C#N)c1ccccc1Oc1ncc(Cl)cn1 (stereo not shown) [Compound 141]
4. CCCCCOC(=O)c1c(Br)cccc1Oc1ncc(Cl)cn1 [Compound 101]

[50, 80, 10, 0]

Hi! Can you tell me Blackgrass plant response rating for each of these compounds?
1. CCOCc1c(Br)cccc1Oc1ncc(Cl)cn1 [Compound 106]
2. CCSC(=O)c1c(Br)cccc1Oc1ncc(Cl)cn1 [Compound 83]

1: 0; 2: 0

Hi! Can you tell me Blackgrass plant response rating for each of these compounds?
1. CCc1cccc(Oc2ncc(Cl)cn2)c1CCCCC(F)(F)F [Compound 134]
2. N#Cc1cccc(Oc2ncc(Cl)cn2)c1C(=O)CCCC(F)(F)F [Compound 133]
3. N#CC(CCCC(F)(F)F)c1ccccc1Oc1ncc(Cl)cn1 (stereo not shown) [Compound 144]
4. O=C(SCC(F)(F)F)c1c(Br)cccc1Oc1ncc(Cl)cn1 [Compound 85]
5. CC(C)(C)CCOC(=O)c1c(Br)cccc1Oc1ncc(Cl)cn1 [Compound 96]
6. O=C(OCCC(F)(F)F)c1c(OCC(F)(F)F)cccc1Oc1ncc(Cl)cn1 [Compound 117]

1. 20
2. 0
3. 90
4. 0
5. 10
6. 10

----------
Would you mind telling me the reported Plant response rating, Ducksalad of each entry?
# Test system: ducksalad (Heteranthera limosa)
# assay-overview: Test B flooded paddy test, plant response rating
# Format: in vivo
# condition-label: 250 g ai/ha; Flood; scale of 0 to 100 where 0 is no effect and 100 is complete control; 13 to 15 days
Numbers only.

molecule	reported-result
O=C(NCCC(F)(F)F)c1c(Br)cccc1Oc1ncc(Cl)cn1	0
O=C(CCC(F)(F)F)c1c(Br)cccc1Oc1ncc(Cl)cn1	100
O=C(OCC1CCCC1)c1c(Br)cccc1Oc1ncc(Cl)cn1	0
O=C(OCC(F)(F)F)c1c(Br)cccc1Oc1ncc(Cl)cn1	50
C=C(Cl)COC(=O)c1c(Br)cccc1Oc1ncc(Cl)cn1	30

Hi! Can you tell me Plant response rating, Ducksalad for each of these molecules?
1. C#CCOC(=O)c1c(Br)cccc1Oc1ncc(Cl)cn1
2. C=C(C)COC(=O)c1c(Br)cccc1Oc1ncc(Cl)cn1

1: 80; 2: 30

Hi! Can you tell me Plant response rating, Ducksalad for each of these molecules?
1. O=C(OCC(F)(F)F)c1c(F)cccc1Oc1ncc(Cl)cn1
2. CCOc1cccc(Oc2ncc(Cl)cn2)c1C(=O)OCCC(F)(F)F
3. O=C(OCCC(F)(F)F)c1cc(Br)ccc1Oc1ncc(Cl)cn1
4. O=C(OCCC(F)(F)F)c1c(Oc2ncc(Cl)cn2)cccc1C(F)(F)F

1: 0; 2: 75; 3: 0; 4: 80

Hi! Can you tell me Plant response rating, Ducksalad for each of these molecules?
1. C=C(Br)COC(=O)c1c(Br)cccc1Oc1ncc(Cl)cn1
2. CCCCC(C#N)c1ccccc1Oc1ncc(Cl)cn1 (stereo not shown)

100
90

----------
# Test system: barnyardgrass (Echinochloa crus-galli)
# assay-overview: Test C postemergence, plant response rating
# Assay type: in vivo
# condition-label: Echinochloa crus-galli, post-emergence, 16 g ai/ha, scale 0 to 100
endpoint: pest or weed control at 16 g/ha (%)
Answers are plain numbers, in %.

compound	result-unit	pest or weed control at 16 g/ha
C=CCOC(=O)c1c(Br)cccc1Oc1ncc(Cl)cn1 [Compound 22]	%	5
O=C(OCCCC(F)(F)F)c1c(Br)cccc1Oc1ncc(Cl)cn1 [Compound 20]	%	10
O=C(OCCC(F)(F)F)c1c(Cl)cccc1Oc1ncc(Cl)cn1 [Compound 15]	%	20

Proceeding to the next compound to report its pest or weed control at 16 g/ha.
Please supply the value of reported pest or weed control at 16 g/ha for the item O=C(OCC(F)(F)C(F)(F)F)c1c(Br)cccc1Oc1ncc(Cl)cn1 [Compound 23]
10

----------
Would you mind telling me the reported Plant response rating, Oilseed Rape of each entry?
# Tested on: oilseed rape (Brassica napus)
# assay-overview: Test C postemergence, plant response rating
# Assay type: in vivo
# condition-label: 16 g ai/ha, scale of 0 to 100
# Description: […]
Give bare numbers.

# count of solved cases: 4
1. O=C(CCC(F)(F)F)c1c(Br)cccc1Oc1ncc(Cl)cn1 5
2. FC(F)(F)CCCCc1c(Cl)cccc1Oc1ncc(Cl)cn1 90
3. O=C(CCCC(F)(F)F)c1c(Br)cccc1Oc1ncc(Cl)cn1 10
4. O=C(CCCC(F)(F)F)c1c(Oc2ncc(Cl)cn2)cccc1C(F)(F)F 80

Proceeding to the next molecule to report its Plant response rating, Oilseed Rape.
Please supply the value of reported Plant response rating, Oilseed Rape for the item O=C(CCCC(F)(F)F)c1c(Cl)cccc1Oc1ncc(Cl)cn1
85

----------
# System: waterhemp (common waterhemp, Amaranthus rudis)
# assay-overview: Test C postemergence, plant response rating
# Assay type: in vivo
# condition-label: 31 g ai/ha, scale 0 to 100
Criterion: Plant response rating, Waterhemp meeting or surpassing 80. Met: 1. Not met: -1.

Before answering, review these 4 worked examples.
1) CCCC(=O)c1c(Br)cccc1Oc1ncc(Cl)cn1 1
2) O=C(CCC(F)(F)F)c1c(Br)cccc1Oc1ncc(Cl)cn1 1
3) O=C(CCC(F)(F)F)c1c(Cl)cccc1Oc1ncc(Cl)cn1 1
4) C=CCOC(=O)c1c(Br)cccc1Oc1ncc(Cl)cn1 -1

Form field: Plant response rating, Waterhemp at least 80? Entry: CCCCC(=O)c1c(Oc2ncc(Cl)cn2)cccc1C(F)(F)F
-1

----------
# System: ryegrass, Italian (Italian ryegrass, Lolium multiflorum)
# assay-overview: Test C postemergence, plant response rating
# Assay type: in vivo
# condition-label: 62 g ai/ha, scale 0 to 100 (0 no effect, 100 complete control)
endpoint: Ryegrass, Italian plant response rating
One number for each entry.

Hi! Can you tell me Ryegrass, Italian plant response rating for each of these molecules?
1. O=C(CCC(F)(F)C(F)(F)F)c1c(Br)cccc1Oc1ncc(Cl)cn1 [Compound 110]
2. O=C(CCCC(F)(F)F)c1c(Cl)cccc1Oc1ncc(Cl)cn1 [Compound 143]
3. O=C(OCC(F)(F)F)c1c(Br)cccc1Oc1ncc(Cl)cn1 [Compound 35]
4. O=C(CCCC(F)(F)F)c1c(Oc2ncc(Cl)cn2)cccc1C(F)(F)F [Compound 125]
5. FC(F)(F)CCCCc1c(Br)cccc1Oc1ncc(Cl)cn1 [Compound 138]
6. CCCC(=O)c1c(Br)cccc1Oc1ncc(Cl)cn1 [Compound 75]
7. CCCC(=O)c1c(Oc2ncc(Cl)cn2)cccc1C(F)(F)F [Compound 136]

[15, 10, 5, 10, 30, 10, 5]

----------
# Test system: corn (Zea mays)
# assay-overview: Test A postemergence, visual injury rating
# Type: in vivo
# condition-label: 500 g ai/ha, 0 is no effect, 100 is complete control
endpoint: Corn plant response rating (0 to 100 scale)
Answers are plain numbers.

compound	reported-result
O=C(OCC(F)(F)F)c1c(Br)cccc1Oc1ncc(Cl)cn1 [Compound 35]	30
C=CCSC(=O)c1c(Br)cccc1Oc1ncc(Cl)cn1 [Compound 91]	50
CCCCC(=O)c1c(Oc2ncc(Cl)cn2)cccc1C(F)(F)F [Compound 130]	50
O=C(OCCC(F)(F)F)c1c(F)cccc1Oc1ncc(Br)cn1 [Compound 41]	0

Proceeding to the next compound to report its Corn plant response rating (0 to 100 scale).
Please supply the value of reported Corn plant response rating (0 to 100 scale) for the item O=C(OCCC(F)(F)F)c1c(Br)cccc1Oc1ncc(Br)cn1 [Compound 33]
90
